Tested on: uterus, ovariectomized rats
Experiment Notes: Uterine weight in ovariectomized rats (4 days daily oral dosing)
Assay type: in vivo, rat (female Sprague Dawley)
Conditions Used: Rattus norvegicus, 96 h; 0.1 mg/kg PO; read-out: Uterine weight (% increase vs. OVX)
Parameter: change in vivo at 0.1 mg/kg (%)
Quick reminder: number only, in %, skip the unit.

Find the recorded change in vivo at 0.1 mg/kg belonging to Cc1cc(-c2sc3cc(O)ccc3c2C(=O)c2ccc(OCCN3CCCCC3)cc2)ccc1O and report it. 7.6

Find the recorded change in vivo at 0.1 mg/kg belonging to O=C(c1ccc(OCCN2CCCCC2)cc1)c1c(-c2cccc(F)c2)sc2cc(O)ccc12 and report it. 53.2

Find the recorded change in vivo at 0.1 mg/kg belonging to O=C(c1ccc(OCCN2CCCCC2)cc1)c1c(-c2ccc(O)c(Cl)c2)sc2cc(O)ccc12 and report it. -22.6

Find the recorded change in vivo at 0.1 mg/kg belonging to COc1cc(O)ccc1-c1sc2cc(O)ccc2c1C(=O)c1ccc(OCCN2CCCCC2)cc1 and report it. 64.1
